# TESTED TARGET: KIT kinase (Homo sapiens)
In this section we review reported Kd values for a set of compounds.

Completed entries (count: 3):
CC(C)(C)c1cc(NC(=O)Cc2c(F)cc(-c3ccc(N)nc3)cc2F)no1.CS(=O)(=O)O [Example 123, methanesulfonate]: 1 to 10 nM
CC(C)(C)c1cc(NC(=O)Nc2ccc(-c3cnc4c(c3)OCC(=O)N4)cc2)no1: ≤ 1 nM
Nc1ccc(-c2ccc(CC(=O)Nc3cc(C4(C(F)(F)F)CC4)on3)cc2)cn1: 1 to 10 nM

Qu. Lab note: KIT kinase (Homo sapiens) assay, enter Kd for CC(C)(C)c1cc(NC(=O)Cc2ccc(-c3ccc(N)nc3C#N)cc2)no1 here
Ans. 1 to 10 nM

Qu. // fetch Kd for COc1cc(-c2ccc(CC(=O)Nc3cc(C4(C)CC4)on3)cc2)cnc1N ; system: KIT kinase (Homo sapiens)
Ans. ≤ 1 nM

Qu. Under KIT kinase (Homo sapiens), report Kd for CC(C)(F)c1cc(NC(=O)Nc2ccc(-c3ccc(N)nc3)cc2)on1 [Example 32, methanesulfonate]
Ans. ≤ 1 nM

Qu. // fetch Kd; item: Cc1cc(N)ncc1-c1ccc(CC(=O)Nc2cc(C(C)(C)C)on2)cc1 [Example 86, methanesulfonate] ; system: KIT kinase (Homo sapiens)
Ans. 1 to 10 nM

Qu. State Kd (KIT kinase (Homo sapiens)) of CC1(c2cc(NC(=O)Cc3ccc(-c4cc(F)c(N)nc4F)cc3)no2)CC1 .
Ans. 1 to 10 nM

---

# TESTED TARGET: KIT kinase (Homo sapiens, UniProt P10721)
# Sequence (P10721 26-976): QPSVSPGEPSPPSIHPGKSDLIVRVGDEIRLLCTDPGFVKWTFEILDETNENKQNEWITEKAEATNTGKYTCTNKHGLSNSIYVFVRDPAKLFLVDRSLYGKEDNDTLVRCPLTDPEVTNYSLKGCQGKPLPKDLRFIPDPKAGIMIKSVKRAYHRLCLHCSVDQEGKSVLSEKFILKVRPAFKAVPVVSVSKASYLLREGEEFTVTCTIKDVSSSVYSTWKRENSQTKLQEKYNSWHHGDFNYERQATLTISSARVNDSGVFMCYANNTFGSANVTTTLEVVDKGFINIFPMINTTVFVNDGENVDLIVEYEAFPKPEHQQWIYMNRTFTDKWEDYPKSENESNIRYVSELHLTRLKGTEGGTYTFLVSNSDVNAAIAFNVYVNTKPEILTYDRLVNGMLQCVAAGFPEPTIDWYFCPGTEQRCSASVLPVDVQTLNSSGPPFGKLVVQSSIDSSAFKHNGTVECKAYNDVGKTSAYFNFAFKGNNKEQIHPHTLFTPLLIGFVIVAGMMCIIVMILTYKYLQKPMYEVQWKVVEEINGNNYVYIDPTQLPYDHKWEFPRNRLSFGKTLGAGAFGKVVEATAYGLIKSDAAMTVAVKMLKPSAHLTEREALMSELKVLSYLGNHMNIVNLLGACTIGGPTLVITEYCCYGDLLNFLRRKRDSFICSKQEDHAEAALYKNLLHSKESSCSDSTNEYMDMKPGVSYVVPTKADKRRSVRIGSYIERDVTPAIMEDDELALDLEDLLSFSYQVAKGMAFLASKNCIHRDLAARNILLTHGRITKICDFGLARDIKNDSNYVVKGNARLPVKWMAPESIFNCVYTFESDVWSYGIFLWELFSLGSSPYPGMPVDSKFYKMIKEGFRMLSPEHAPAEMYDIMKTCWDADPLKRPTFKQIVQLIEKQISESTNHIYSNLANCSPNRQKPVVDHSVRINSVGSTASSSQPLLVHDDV
Kd reference

Record excerpt, results attached:
COc1cc(-c2ccc(CC(=O)Nc3cc(C(C)(C)C)on3)cc2)cnc1N.CS(=O)(=O)O [Example 136, methanesulfonate]: 1 to 10 nM
CC1(c2cc(NC(=O)Cc3ccc(-c4cnc(N)cc4Cl)cc3)no2)CC1 [Example 172]: ≤ 1 nM
CS(=O)(=O)O.Nc1ccc(-c2ccc(NC(=O)Nc3cc(C4(C(F)(F)F)CCC4)on3)cc2)cn1 [Example 121, methanesulfonate]: 1 to 10 nM
CC1(c2cc(NC(=O)Nc3ccc(-c4ccc(N)nc4)cc3)no2)CC1.CS(=O)(=O)O [Example 106, methanesulfonate]: ≤ 1 nM

Qu. Please give the documented Kd of CC(C)(C)c1cc(NC(=O)Cc2ccc(-c3ccc(N)nc3F)cc2)no1.CS(=O)(=O)O [Example 95, methanesulfonate]
Ans. 1 to 10 nM

Qu. Quickly give me recorded Kd for CN(C(=O)Nc1cc(C(C)(C)C)on1)c1ccc(-c2ccc(N)nc2)cc1 [Example 31]
Ans. ≤ 1 nM

Qu. Give a short answer stating reported Kd for CC(C)(C)c1cc(NC(=O)Nc2ccc(-c3cnc(OCCN4CCOCC4)nc3)cc2)no1 [Example 47] .
Ans. 1 to 10 nM

Qu. For CC(C)(C)c1cc(NC(=O)Cc2ccc(-c3cnc(N)c(C(N)=O)n3)cc2)no1 [Example 114, methanesulfonate] , write its Kd.
Ans. ≤ 1 nM

---

# TESTED TARGET: kinase panel containing either 359 or 386 distinct kinases
# PROTOCOL DESCRIPTION: Selectivity score S10 from competition binding against a panel of kinases
# APPLIED CONDITIONS: compounds at 10 μM; panel of 386 distinct kinases
QUANTITY MEASURED: Kinase specificty: S(10)-386 panel

Example cases with answers are listed next.
Nc1ccc(-c2ccc(CC(=O)Nc3cc(C4(C(F)(F)F)CC4)on3)cc2)cn1: A (A≦0.1)
CCNc1ccc(-c2ccc(CC(=O)Nc3cc(C(C)(C)C)on3)cc2)cn1.CS(=O)(=O)O: A (A≦0.1)
CS(=O)(=O)O.Nc1ccc(-c2ccc(CC(=O)Nn3cc(C(F)(F)F)cn3)cc2)cn1: A (A≦0.1)
CC1(c2cc(NC(=O)Cc3ccc(-c4cnc(N)c(C(F)(F)F)c4)cc3)no2)CC1: B (0.1<B≦0.2 nM)
CC(C)(C)c1cc(NC(=O)Cc2ccc(-c3cc(F)c(N)nc3F)cc2)no1.CS(=O)(=O)O: A (A≦0.1)
CS(=O)(=O)O.Cc1cc(-c2ccc(CC(=O)Nc3cc(C4(C)COC4)on3)cc2)cnc1N: A (A≦0.1)
CC(C)(F)c1cc(NC(=O)Cc2ccc(-c3ccc(NCCN4CCOCC4)nc3)cc2)on1: A (A≦0.1)

Now for the compound whose Kinase specificty: S(10)-386 panel we want.
Qu. Give a short answer stating reported Kinase specificty: S(10)-386 panel for CC(C)(C)c1cc(NC(=O)Cc2ccc(-c3cnc(N)c(F)c3)cc2)no1.CS(=O)(=O)O .
Ans. B (0.1<B≦0.2 nM)

The measurements presented in this section are drawn from patent US20130035326A1.
